- protocolNotes: LC-MS/MS quantification of drugs in oral fluid of live and post-mortem dogs
- setupConditions: post-mortem dog SF10049, FIG. 28
Some molecules, each annotated with its measured concentration in oral fluid.
Hi! Could you send only the number? It should be in ng/mL, unit omitted.

Task item: Report concentration in oral fluid, nothing else, for this molecule: "NCC1(CC(=O)O)CCCCC1"
Reply: 205.00

Task item: Report concentration in oral fluid, nothing else, for this molecule: "CC(=O)Nc1ccc(O)cc1"
Reply: 12.20

Task item: Report concentration in oral fluid, nothing else, for this molecule: COc1cccc(C2(O)CCCCC2CN(C)C)c1 (stereo not shown)
Reply: 49.70

Lab note: next molecule to report on.
Task item: Report concentration in oral fluid, nothing else, for this molecule: CNC1(c2ccccc2Cl)CCCCC1=O (stereo not shown)
Reply: 408.30
